Value source: ChEMBL document CHEMBL4321850

Target: Aryl hydrocarbon receptor (Homo sapiens, UniProt P35869)
Sequence (P35869 whole entry): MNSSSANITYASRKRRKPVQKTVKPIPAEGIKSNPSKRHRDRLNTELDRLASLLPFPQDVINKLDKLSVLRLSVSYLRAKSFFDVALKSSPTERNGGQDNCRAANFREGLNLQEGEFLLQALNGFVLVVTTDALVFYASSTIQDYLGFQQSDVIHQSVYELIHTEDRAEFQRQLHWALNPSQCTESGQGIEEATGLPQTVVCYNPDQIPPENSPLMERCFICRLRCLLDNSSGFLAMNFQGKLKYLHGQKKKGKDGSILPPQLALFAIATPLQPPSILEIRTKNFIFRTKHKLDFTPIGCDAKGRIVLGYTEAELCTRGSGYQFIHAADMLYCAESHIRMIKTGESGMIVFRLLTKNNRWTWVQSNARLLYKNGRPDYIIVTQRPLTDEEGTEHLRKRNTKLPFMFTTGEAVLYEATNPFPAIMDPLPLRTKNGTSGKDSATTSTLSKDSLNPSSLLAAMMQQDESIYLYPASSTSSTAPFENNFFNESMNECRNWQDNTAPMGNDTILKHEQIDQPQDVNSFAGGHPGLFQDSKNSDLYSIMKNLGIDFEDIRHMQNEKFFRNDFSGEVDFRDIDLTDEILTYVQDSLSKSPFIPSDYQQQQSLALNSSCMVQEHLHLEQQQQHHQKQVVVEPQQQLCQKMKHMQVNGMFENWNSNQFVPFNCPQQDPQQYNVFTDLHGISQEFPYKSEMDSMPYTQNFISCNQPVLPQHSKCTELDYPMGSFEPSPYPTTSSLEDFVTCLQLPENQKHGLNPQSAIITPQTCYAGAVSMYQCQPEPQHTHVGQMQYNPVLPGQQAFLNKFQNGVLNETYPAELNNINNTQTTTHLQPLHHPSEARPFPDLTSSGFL
Test: Binding affinity to AhR (unknown origin) relative to TCDD
property name: pEC50
The read-out pEC50 is expressed as -log10 of concentration in moles per litre.

Sample `Cc1cc(Cl)cc2c1oc1cc(Cl)cc(Cl)c12` — what was its pEC50?
7.31

----------
Molecular target: Aryl hydrocarbon receptor (Mus musculus, UniProt P30561)
Sequence (P30561 whole entry): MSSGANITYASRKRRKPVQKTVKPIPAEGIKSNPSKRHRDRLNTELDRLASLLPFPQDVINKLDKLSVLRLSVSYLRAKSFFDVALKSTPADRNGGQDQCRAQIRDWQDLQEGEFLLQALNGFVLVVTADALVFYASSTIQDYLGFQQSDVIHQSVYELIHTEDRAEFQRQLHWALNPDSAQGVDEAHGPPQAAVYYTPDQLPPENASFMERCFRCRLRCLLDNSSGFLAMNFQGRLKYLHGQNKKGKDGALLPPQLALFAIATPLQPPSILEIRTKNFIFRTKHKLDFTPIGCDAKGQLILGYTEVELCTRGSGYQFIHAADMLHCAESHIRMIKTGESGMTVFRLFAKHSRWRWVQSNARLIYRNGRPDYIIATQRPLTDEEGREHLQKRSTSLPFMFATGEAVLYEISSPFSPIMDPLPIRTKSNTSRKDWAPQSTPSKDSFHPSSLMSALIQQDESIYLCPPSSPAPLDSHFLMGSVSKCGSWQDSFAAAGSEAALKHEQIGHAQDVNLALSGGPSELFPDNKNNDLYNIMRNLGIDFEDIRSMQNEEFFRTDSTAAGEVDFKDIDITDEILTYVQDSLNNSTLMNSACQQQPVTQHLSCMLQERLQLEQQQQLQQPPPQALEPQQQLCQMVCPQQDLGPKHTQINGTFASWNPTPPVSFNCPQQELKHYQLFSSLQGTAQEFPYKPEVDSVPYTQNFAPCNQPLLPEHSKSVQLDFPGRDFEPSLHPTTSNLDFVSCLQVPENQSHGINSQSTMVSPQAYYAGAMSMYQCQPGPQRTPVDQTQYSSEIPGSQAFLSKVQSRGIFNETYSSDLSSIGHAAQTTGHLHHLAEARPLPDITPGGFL
Assay: Displacement of 2-azido-3-[125I]7,8-dibromodibenzo-pdioxin from C57BL/6J mouse liver AhR
property name: Kd (µM)
A number alone suffices; assume µM.

Sample `c1ccc2c(Cc3c[nH]c4ccccc34)c[nH]c2c1` — what was its Kd?
0.09

----------
Target: Aryl hydrocarbon receptor (Mus musculus)
Assay: Displacement of 2-azido-3-[125I]7,8-dibromodibenzo-pdioxin from C57BL/6J mouse liver AhR incubated for 20 mins by gamma counting based autoradiography
property name: IC50 (nM)
A number alone suffices; assume nM.

COc1ccc(-c2cc(=O)c3ccc4ccccc4c3o2)cc1OC
21

Sample O=c1cc(-c2ccccc2)oc2c1ccc1ccccc12 [ALPHA-NAPHTHOFLAVONE] — what was its IC50?
25

----------
Target: Aryl hydrocarbon receptor (Homo sapiens)
Sequence (P35869 whole entry): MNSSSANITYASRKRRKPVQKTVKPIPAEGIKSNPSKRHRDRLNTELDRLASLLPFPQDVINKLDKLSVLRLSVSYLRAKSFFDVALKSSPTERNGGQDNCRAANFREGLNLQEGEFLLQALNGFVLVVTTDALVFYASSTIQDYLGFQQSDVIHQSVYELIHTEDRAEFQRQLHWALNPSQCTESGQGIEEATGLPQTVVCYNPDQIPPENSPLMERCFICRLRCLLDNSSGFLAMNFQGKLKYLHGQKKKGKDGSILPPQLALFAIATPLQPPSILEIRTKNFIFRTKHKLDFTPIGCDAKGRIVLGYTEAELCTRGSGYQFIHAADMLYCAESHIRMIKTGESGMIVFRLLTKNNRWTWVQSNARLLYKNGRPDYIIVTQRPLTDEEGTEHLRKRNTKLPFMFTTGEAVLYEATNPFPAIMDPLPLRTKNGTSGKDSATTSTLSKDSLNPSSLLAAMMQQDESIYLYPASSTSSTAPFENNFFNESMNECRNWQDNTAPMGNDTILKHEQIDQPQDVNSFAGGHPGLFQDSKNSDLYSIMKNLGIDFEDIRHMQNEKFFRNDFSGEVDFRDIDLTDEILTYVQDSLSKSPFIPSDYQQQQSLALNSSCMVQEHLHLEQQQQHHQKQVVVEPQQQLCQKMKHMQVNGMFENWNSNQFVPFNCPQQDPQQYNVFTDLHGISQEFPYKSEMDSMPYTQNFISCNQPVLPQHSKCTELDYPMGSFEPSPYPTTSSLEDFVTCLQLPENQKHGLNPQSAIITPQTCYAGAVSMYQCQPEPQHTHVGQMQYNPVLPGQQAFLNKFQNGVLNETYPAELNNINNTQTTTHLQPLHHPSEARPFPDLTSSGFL
property name: Kd (nM)
A number alone suffices; assume nM.

Sample `Cc1cc(Cl)cc2c1oc1cc(Cl)cc(Cl)c12` — what was its Kd?
0.13
